For each entry below, report its viability, T/C value.
Test system: NCI-H196 SCLC complex tumor spheroid viability
Assay: Anticancer human tumor NCI-H196 cell line growth inhibition;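 note: spheroids exposed to compounds for 7 days before readout; 100% = DMSO vehicle control wells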
Conditions: second compound 3.16 µM; first compound 0.3 µM; active compounds read low
Protocol: Multicellular complex tumor spheroid response to DNA repair inhibitors in combination with DNA-damaging drugs This study explores the anticancer activities of DNA-damaging drugs and inhibitors of DNA damage repair, both as single agents and in combinations. […] Twenty-six patient-derived or established malignant cell lines were evaluated representing sarcoma, melanoma, small cell lung cancer (SCLC), non-small cell lung cancer (NSCLC), as well as bladder, ovarian and pancreatic cancers. […]
Give bare numbers, in %.

compound="Cn1ncnc1[C@H]1c2n[nH]c(=O)c3cc(F)cc(c23)N[C@@H]1c1ccc(F)cc1 + Cn1nnc2c(C(N)=O)ncn2c1=O" experimental_readout="viability, T/C" test_value=103
compound="CNCc1ccc(-c2cc(-c3nc(-c4ccc(S(=O)(=O)C(C)C)cc4)cnc3N)on2)cc1 + Cn1nnc2c(C(N)=O)ncn2c1=O" experimental_readout="viability, T/C" test_value=105
compound="O=C(c1cc(Cc2n[nH]c(=O)c3ccccc23)ccc1F)N1CCN(C(=O)C2CC2)CC1 + Cn1nnc2c(C(N)=O)ncn2c1=O" experimental_readout="viability, T/C" test_value=94.3

Okay, next one:
Which viability, T/C value belongs to Cc1sc2c(c1C)C(c1ccc(Cl)cc1)=NC(CC(=O)Nc1ccc(O)cc1)c1nnc(C)n1-2 (centres undefined) + Cn1nnc2c(C(N)=O)ncn2c1=O ?
75.5

---

For each of the compounds below, state its viability, T/C.
Tested on: NCI-H196 SCLC complex tumor spheroid viability
Assay: Anticancer human tumor NCI-H196 cell line growth inhibition;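 note: spheroids exposed to compounds for 7 days before readout; 100% = DMSO vehicle control wells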
Conditions: second compound 0.00949 µM; first compound 0.316 µM; active compounds read low
Answers are plain numbers, in %.

Completed entries (count: 5):
compound="CC1COCCN1c1cc(-c2ccnn2C)c2ccnc(-c3ccn[nH]3)c2n1 (stereo unspecified) + CC[C@@]1(O)C(=O)OCc2c1cc1n(c2=O)Cc2cc3c(CN(C)C)c(O)ccc3nc2-1" experimental_readout="viability, T/C" unit_info=% test_value=67
compound="COc1cc(C)[nH]c(=O)c1CN1CCc2c(Cl)cc(C(OC)C3COC3)c(Cl)c2C1=O (stereo unspecified) + CC[C@@]1(O)C(=O)OCc2c1cc1n(c2=O)Cc2cc3c(CN(C)C)c(O)ccc3nc2-1" experimental_readout="viability, T/C" unit_info=% test_value=91.5
compound="COc1ccc([C@@H](O)c2cc(-c3ncnc4cc(N5CCOCC5)ccc34)c(F)cc2Cl)nn1 + CC[C@@]1(O)C(=O)OCc2c1cc1n(c2=O)Cc2cc3c(CN(C)C)c(O)ccc3nc2-1" experimental_readout="viability, T/C" unit_info=% test_value=95.5
compound="[2H]c1nc(C)nc([2H])c1-c1cc(NC[C@@H](C)c2cccc3c(C(=O)NC)ccnc23)ncn1 + CC[C@@]1(O)C(=O)OCc2c1cc1n(c2=O)Cc2cc3c(CN(C)C)c(O)ccc3nc2-1" experimental_readout="viability, T/C" unit_info=% test_value=91.8
compound="CC(C)n1c(=O)n(C)c2cnc3cc(F)c(-c4ccc(OCCCN5CCCCC5)nc4)cc3c21 + CC[C@@]1(O)C(=O)OCc2c1cc1n(c2=O)Cc2cc3c(CN(C)C)c(O)ccc3nc2-1" experimental_readout="viability, T/C" unit_info=% test_value=109

For the next question, use this compound.
Request body: readout viability, T/C, system NCI-H196 SCLC complex tumor spheroid viability, query Cc1cc(C)c(CNC(=O)c2cc(-c3ccc(CN4CCOCC4)cc3)cc3c2cnn3C2CCCC2)c(=O)[nH]1 + CC[C@@]1(O)C(=O)OCc2c1cc1n(c2=O)Cc2cc3c(CN(C)C)c(O)ccc3nc2-1 . Return the value.
99.9

Data origin: PubChem BioAssay AID1845208
